# Lookup of reported koff keyed by entry
# MEASURED_ON: T1, recombinant human IL-23 (human, UniProt Q9NPF7 20-189; P29460 23-328)
# T1 construct: also called hIL-23
# T1 sequence 1: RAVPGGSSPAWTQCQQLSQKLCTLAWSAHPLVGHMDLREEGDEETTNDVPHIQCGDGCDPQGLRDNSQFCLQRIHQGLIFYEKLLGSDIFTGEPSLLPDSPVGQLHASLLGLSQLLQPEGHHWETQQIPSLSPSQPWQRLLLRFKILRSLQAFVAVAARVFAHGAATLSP
# T1 sequence 2: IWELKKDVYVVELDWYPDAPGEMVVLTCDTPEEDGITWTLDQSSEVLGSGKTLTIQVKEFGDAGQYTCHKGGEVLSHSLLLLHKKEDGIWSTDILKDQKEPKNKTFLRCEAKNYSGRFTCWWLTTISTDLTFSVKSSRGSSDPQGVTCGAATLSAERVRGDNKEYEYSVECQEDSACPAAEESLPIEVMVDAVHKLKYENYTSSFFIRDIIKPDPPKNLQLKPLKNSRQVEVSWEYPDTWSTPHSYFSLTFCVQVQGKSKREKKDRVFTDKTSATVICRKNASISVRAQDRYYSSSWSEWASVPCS
# ASSAY_NOTES: SPR (Biacore T100), CHO supernatant antibody captured on Protein A or anti-human IgG, IL-23 analyte at 256, 64, 16, 4, 1 nM
Answer in s⁻¹, number only, no unit symbol.

Solved cases below.
BINDER	koff [s⁻¹]
A3M0 (antibody, human IgG1, kappa, V domains shown, Full length chains; also called humanized mAb A3M0) VH: QVQLVQSGAEVKKPGSSVKVSCKASGYTFTSYGITWVRQAPGQGLEWMGENYPRSGNTYYNEKFKGRVTITADKSTSTAYMELSSLRSEDTAVYYCARSEFISTVVAPYYYALDYWGQGTLVTVSS VL: DIVMTQSPDSLAVSLGERATINCKASKKVTIFGSISALHWYQQKPGQPPKLIYNGAKLESGVPDRFSGSGSGTDFTLTISSLQAEDVAVYYCLQNKEVPYTFGGGTKVEIKR	0.00028
A3N2 (antibody, human IgG1, kappa, V domains shown, Full length chains) VH: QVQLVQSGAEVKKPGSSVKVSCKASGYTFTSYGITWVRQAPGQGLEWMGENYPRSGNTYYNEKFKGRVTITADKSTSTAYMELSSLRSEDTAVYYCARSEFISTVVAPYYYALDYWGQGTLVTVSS VL: DIVMTQTPLSLSVTPGQPASISCKASKKVTIFGSISALHWYLQKPGQPPQLIYNGAKLESGVSDRFSDSGSGTDFTLKISRVEAEDVGVYYCLQNKEVPYTFGGGTKVEIKR	0.00038

Lookup: For the binder A3N1 (antibody, human IgG1, kappa, V domains shown, Full length chains) VH: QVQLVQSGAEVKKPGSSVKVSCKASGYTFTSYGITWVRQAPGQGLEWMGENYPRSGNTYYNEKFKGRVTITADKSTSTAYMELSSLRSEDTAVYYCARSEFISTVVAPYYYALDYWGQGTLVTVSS VL: DIVMTQTPLSLSVTPGQPASISCKASKKVTIFGSISALHWYLQKPGQPPQLIYNGAKLESGVSDRFSDSGSQNRSPFGNQLSFTLKISRVEAEDVGVYYCLQNKEVPYTFGGGTKVEIKR , what koff is on record?
Found: 0.00035

Lookup: Subsequent entry: A3M1 (antibody, human IgG1, kappa, V domains shown, Full length chains) VH: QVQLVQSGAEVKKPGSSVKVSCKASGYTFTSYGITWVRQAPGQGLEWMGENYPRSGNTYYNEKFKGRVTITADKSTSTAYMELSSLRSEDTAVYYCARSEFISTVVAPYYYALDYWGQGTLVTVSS VL: DIVMTQSPDSLAVSLGERATINCKASKKVTIFGSISALHWYQQKPGQPPKLIYNGAKLESGVSDRFSDSGSQNRSPFGNQLSFTLTISSLQAEDVAVYYCLQNKEVPYTFGGGTKVEIKR
Found: 0.00031
